- assay info: NCI Yeast Anticancer Drug Screen. Data for the cln2 rad14 strain (AID 165);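 note: 0% = growth equal to vehicle treated cultures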
- conditions used: S. cerevisiae cln2 rad14 strain, at 50.0 µM
This is part of a sample that, as a whole, favours compounds with a hit. Of some 79,000 tested, about 15% had one in any assay. Active and inactive are the calls of the source. Cut-off read from the data, not from the text of the source: active = growth inhibition above about 70%; inactive = the rest.
Please reply with one of these outcomes: true (1) for active, false (0) for inactive

Use these answered entries as a reference point.
[[record]]
molecule = "CCCCCc1cc(C(=O)OC/C(C)=N/O)c2ccccc2n1"
answer_label = "true (1)"

[[record]]
molecule = "O=C(O)c1cc(C(=O)O)c(C(=O)O)cc1C(=O)O.[NH-]C1CCCC1.[NH-]C1CCCC1.[NH-]C1CCCC1.[NH-]C1CCCC1.[Pt+2].[Pt+2]"
answer_label = "true (1)"

[[record]]
molecule = "O=C1c2cccc3cc([N+](=O)[O-])cc(c23)C(=O)N1O"
answer_label = "false (0)"

[[record]]
molecule = "CCOC(=O)CC[P+](Cc1ccccc1)(c1ccccc1)c1ccccc1"
answer_label = "false (0)"

[[record]]
molecule = "COc1ccc(C2=CCC3C4CC=C5CC(O)CCC5(C)C4CCC23C)s1 (configuration not stated)"
answer_label = "false (0)"

[[record]]
molecule = "O=C1C(=O)C(Br)(c2ccccc2)C(=O)C1c1ccccc1 (configuration not stated)"
answer_label = "true (1)"


Okay, now this molecule:
So what was the verdict on O=C1/C(=C\c2ccccc2)C(NC2CCCCC2)c2ccccc21 (configuration not stated) in this test?
true (1)

---

- assay info: NCI Yeast Anticancer Drug Screen. Data for the mec2-1 strain (AID 157)
- conditions used: S. cerevisiae mec2-1 strain, at 50.0 µM (retest, dose inferred, filed as 5.0)
Compounds without any hit were thinned out: in the full panel of roughly 79,000, 15% have a hit. The source made the active and inactive calls. No stated cut-off is given here; in the data, active means growth inhibition above about 70%; inactive means the rest.
Log the outcome using a class from active, inactive

[[record]]
compound = "COc1ccc2ccc(=O)oc2c1CC=C(C)C"
answer_label = "active"

[[record]]
compound = "O=[N+]([O-])c1cnc(F)c(Br)c1"
answer_label = "active"

[[record]]
compound = "Cc1c(-c2ccccc2)ccnc1/C=N/NC(=S)Nc1ccccc1"
answer_label = "inactive"

[[record]]
compound = "O=C(O)C(=O)Cc1ccc(O)cc1"
answer_label = "inactive"

[[record]]
compound = "CCN(CC)CCN(C)c1ccc(CO)c2c1C(=O)c1ccccc1S2=O (stereo not given)"
answer_label = "inactive"

[[record]]
compound = "O=C(Nc1nc2ccc([N+](=O)[O-])cc2s1)C(=O)C(C1OC(=O)c2ccccc21)[N+](=O)[O-] (stereo not given)"
answer_label = "inactive"

[[record]]
compound = "OC1c2ccccc2C2(O)C1C(c1ccccc1)C(c1ccccc1)C2(O)c1ccccc1 (stereo not given)"
answer_label = "active"

[[record]]
compound = "CCOC(=O)c1nnc2cc(-c3ccccc3)nn2c1-c1ccccc1"
answer_label = "inactive"

[[record]]
compound = "O=C(CC1(O)C(=O)Nc2c(Cl)cc(Cl)cc21)c1ccc(Br)cc1Br (stereo not given)"
answer_label = "active"

[[record]]
compound = "COC(=O)/C=C/c1cccc[n+]1[O-]"
answer_label = "inactive"


Look up the recorded call for `C=CS(=O)(=O)c1ccc(C)cc1` in this test.
active

Short answer needed: outcome of this test for CCCCCCCCCCCCCCC(C(=O)O)S(=O)(=O)O (stereo not given) ?
inactive

// outcome(item) with item = `CCCCCCCCCCCN1C(=O)c2ccccc2S1(=O)=O`
inactive

Record lookup: outcome of this test for OC1CCCCC1Cc1ccc(Cl)cc1 (stereo not given) ?
inactive

Please let me know the test result on file for `[Br][Pt+2][Br].[NH-]c1cccc(I)c1.[NH-]c1cccc(I)c1` .
inactive
